Counter-ions that a name gives are not always drawn.
Hi there, I'd appreciate the recorded melting point for every entry that follows.
One number for each entry, in °C.

Would you please look over these solved cases?
compound: CCCCN1CCN(c2cc(-c3ccccc3)c(C(F)(F)F)nn2)CC1 [Example E25]
unitAnnotation: °C
measured: 102.9
--
compound: FC(F)(F)c1nnc(N2CCN(C3CC3)CC2)cc1-c1ccccc1 [Example E23]
unitAnnotation: °C
measured: 152
--
compound: C[C@@H]1CN(c2cc(-c3ccccc3)c(C(F)(F)F)nn2)C[C@H](C)N1 (as salt: hydrochloric acid salt) [Example E4]
unitAnnotation: °C
measured: 285.4
--
compound: FC(F)(F)c1nnc(N2CCNCC2)cc1-c1ccccc1 [Example E1]
unitAnnotation: °C
measured: 130.7
--
compound: FC(F)(F)c1nnc(N2CCNCC2)cc1-c1cccs1 [Example E19]
unitAnnotation: °C
measured: 112.6

For the 2 compounds below, give their melting point values.
1. CCCN1CCN(c2cc(-c3ccccc3)c(C(F)(F)F)nn2)CC1 [Example E24]
2. Cc1ccc(-c2cc(N3CCNCC3)nnc2C(F)(F)F)cc1 [Example E11]

**A:**
[129.8, 110.6]

**Q:** # input compound: COc1ccccc1-c1cc(N2CCNCC2)nnc1C(F)(F)F (as salt: hydrochloric acid salt) [Example E31] ; wanted: its melting point
**A:** 287.7

###

assaySystem: human Serotonin 5HT6 receptor (Homo sapiens)
Construct: expressed in transfected cells; host or cells: HEK cells (membranes)
Sequence (P50406 whole entry): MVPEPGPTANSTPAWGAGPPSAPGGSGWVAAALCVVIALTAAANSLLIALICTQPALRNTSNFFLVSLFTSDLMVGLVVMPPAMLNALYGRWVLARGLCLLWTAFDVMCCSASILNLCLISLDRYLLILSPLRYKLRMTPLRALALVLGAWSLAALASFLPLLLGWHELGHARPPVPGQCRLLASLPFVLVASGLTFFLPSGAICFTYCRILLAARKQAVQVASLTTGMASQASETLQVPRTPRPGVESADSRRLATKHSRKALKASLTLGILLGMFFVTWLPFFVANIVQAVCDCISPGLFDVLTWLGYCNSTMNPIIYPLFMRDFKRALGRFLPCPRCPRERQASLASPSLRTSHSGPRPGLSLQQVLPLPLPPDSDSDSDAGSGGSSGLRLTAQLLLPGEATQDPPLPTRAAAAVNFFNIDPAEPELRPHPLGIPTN
assayProtocol: In vitro binding affinity for human 5HT6 receptor ([3H]lysergic acid diethylamide)
conditionParameters: [3H]LSD, membranes of human 5HT6 receptor-transfected HEK cells; read-out: 5-HT6 binding pIC50 (converted)
I'd appreciate it if you could supply IC50 values for the items below.
One number for each entry, in µM.

# map each compound to its IC50
1. FC(F)(F)c1nnc(N2CCNCC2)cc1-c1cccc(Cl)c1 [Example E16]
2. CN1CCN(c2cc(-c3ccccc3)c(C(F)(F)F)nn2)CC1 [Example E22]
3. FC(F)(F)c1nnc(N2CCNCC2)cc1-c1cccs1 [Example E19]
4. FC(F)(F)c1nnc(N2CCN(CC3CC3)CC2)cc1-c1ccccc1 [Example E39]

**A:**
1: 0.245; 2: 1.26; 3: 1.95; 4: 3.89

List the reported IC50 of each compound below.
1. CCCN1CCN(c2cc(-c3ccccc3)c(C(F)(F)F)nn2)CC1 [Example E24]
2. FC(F)(F)c1nnc(N2CCNCC2)cc1-c1ccc(Cl)cc1 [Example E12]
3. FC(F)(F)c1nnc(N2CCNCC2)cc1-c1ccc(-c2ccccc2)cc1 [Example E35]
4. FC(F)(F)c1nnc(N2CCNCC2)cc1-c1ccsc1 [Example E7]
5. FC(F)(F)c1nnc(N2CCNCC2)cc1-c1cc(Cl)ccc1Cl [Example E34]

**A:**
1. 5.37
2. 1.74
3. 1.51
4. 1.55
5. 0.794

Each compound below has a recorded value; state its IC50.
1. CCCCN1CCN(c2cc(-c3ccccc3)c(C(F)(F)F)nn2)CC1 [Example E25]
2. CCN1CCN(c2cc(-c3ccccc3)c(C(F)(F)F)nn2)CC1 [Example E2]
3. C[C@@H]1CN(c2cc(-c3ccccc3)c(C(F)(F)F)nn2)C[C@H](C)N1 [Example E4]
4. FC(F)(F)c1nnc(N2CCN(Cc3ccccc3)CC2)cc1-c1ccccc1 [Example E36]

**A:**
2.69
3.16
8.51
6.61

Quick one: give me IC50 for each item below, same order please.
1. FC(F)(F)c1nnc(N2CCNCC2)cc1-c1cccc2ccccc12 [Example E18]
2. Fc1ccc(-c2ccc(-c3cc(N4CCNCC4)nnc3C(F)(F)F)cc2)cc1 [Example E9]
3. COc1ccccc1-c1cc(N2CCNCC2)nnc1C(F)(F)F [Example E31]

**A:**
0.158
1.82
1.12

###

assaySystem: human Dopamine D3 receptor (Homo sapiens)
Construct: expressed in transfected cells; host or cells: CHO cells (membranes)
Sequence (P35462 whole entry): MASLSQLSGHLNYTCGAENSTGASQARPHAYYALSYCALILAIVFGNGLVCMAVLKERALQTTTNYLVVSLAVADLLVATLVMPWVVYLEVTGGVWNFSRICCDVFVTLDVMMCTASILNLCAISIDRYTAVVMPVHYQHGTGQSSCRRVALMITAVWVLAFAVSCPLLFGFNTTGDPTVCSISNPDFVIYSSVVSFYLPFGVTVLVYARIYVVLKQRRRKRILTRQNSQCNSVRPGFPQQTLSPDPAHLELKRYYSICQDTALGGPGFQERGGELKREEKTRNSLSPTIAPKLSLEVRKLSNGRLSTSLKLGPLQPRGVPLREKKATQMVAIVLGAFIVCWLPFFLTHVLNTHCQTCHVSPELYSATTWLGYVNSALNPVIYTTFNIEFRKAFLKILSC
assayProtocol: In vitro binding affinity for human D3 receptor ([125I]iodosulpride)
conditionParameters: [125I]iodosulpride, membranes of human D3 receptor-transfected CHO cells; read-out: D3 binding pIC50 (converted)
Provide the reported IC50 of each item.
Answers are plain numbers, in nM.

molecule: FC(F)(F)c1nnc(N2CCN(C3CC3)CC2)cc1-c1ccccc1
assaySystem: human Dopamine D3 receptor (Homo sapiens)
valueKind: IC50
unitAnnotation: nM
measured: 275

molecule: FC(F)(F)c1nnc(N2CCNCC2)cc1-c1cccs1
assaySystem: human Dopamine D3 receptor (Homo sapiens)
valueKind: IC50
unitAnnotation: nM
measured: 148

molecule: Fc1ccc(-c2ccc(-c3cc(N4CCNCC4)nnc3C(F)(F)F)cc2)cc1
assaySystem: human Dopamine D3 receptor (Homo sapiens)
valueKind: IC50
unitAnnotation: nM
measured: 47.9

molecule: FC(F)(F)c1nnc(N2CCN(Cc3ccccn3)CC2)cc1-c1ccccc1
assaySystem: human Dopamine D3 receptor (Homo sapiens)
valueKind: IC50
unitAnnotation: nM
measured: 87.1

molecule: FC(F)(F)c1nnc(N2CCNCC2)cc1-c1ccc2ccccc2c1
assaySystem: human Dopamine D3 receptor (Homo sapiens)
valueKind: IC50
unitAnnotation: nM
measured: 398

molecule: CCCCN1CCN(c2cc(-c3ccccc3)c(C(F)(F)F)nn2)CC1
assaySystem: human Dopamine D3 receptor (Homo sapiens)
valueKind: IC50
unitAnnotation: nM
measured: 2.63

molecule: Fc1cccc(-c2cc(N3CCNCC3)nnc2C(F)(F)F)c1
assaySystem: human Dopamine D3 receptor (Homo sapiens)
valueKind: IC50
unitAnnotation: nM
measured: 631

// below: IC50 requested for another molecule
**Q:** # returns recorded IC50 (system: human Dopamine D3 receptor (Homo sapiens)) for FC(F)(F)c1nnc(N2CCNCC2)cc1-c1ccccc1 [Example E1]
**A:** 66.1

###

assaySystem: human Serotonin 5HT6 receptor (Homo sapiens)
Construct: expressed in transfected cells; host or cells: HEK cells (membranes)
assayProtocol: In vitro binding affinity for human 5HT6 receptor ([3H]lysergic acid diethylamide)
conditionParameters: [3H]LSD, membranes of human 5HT6 receptor-transfected HEK cells; read-out: 5-HT6 binding pIC50 (converted)
valueKind: IC50 (nM)
One number for each entry, in nM.

Some solved cases for reference:
mol: Fc1cccc(-c2cc(N3CCNCC3)nnc2C(F)(F)F)c1
unitAnnotation: nM
measured: 1550

mol: Cc1ccc(-c2cc(N3CCNCC3)nnc2C(F)(F)F)cc1
unitAnnotation: nM
measured: 741

mol: FC(F)(F)c1nnc(N2CCNCC2)cc1-c1ccc2ccccc2c1
unitAnnotation: nM
measured: 437

mol: Fc1ccccc1-c1cc(N2CCNCC2)nnc1C(F)(F)F
unitAnnotation: nM
measured: 1290

mol: CN(C)c1ccc(-c2cc(N3CCNCC3)nnc2C(F)(F)F)cc1
unitAnnotation: nM
measured: 977

mol: Cc1csc(-c2cc(N3CCNCC3)nnc2C(F)(F)F)c1
unitAnnotation: nM
measured: 562

The following compounds each have a reported value; give each one's IC50.
1. Oc1cccc(-c2cc(N3CCNCC3)nnc2C(F)(F)F)c1
2. FC(F)(F)c1nnc(N2CCNCC2)cc1-c1ccc(Cl)s1

**A:**
[3550, 794]

###

assaySystem: human Dopamine D3 receptor (Homo sapiens)
Construct: expressed in transfected cells; host or cells: CHO cells (membranes)
assayProtocol: In vitro binding affinity for human D3 receptor ([125I]iodosulpride)
conditionParameters: [125I]iodosulpride, membranes of human D3 receptor-transfected CHO cells; read-out: D3 binding pIC50 (converted)
valueKind: IC50 (nM)
Answers are plain numbers, in nM.

Guide cases for IC50, answers given:
molecule: CCN1CCN(c2cc(-c3ccccc3)c(C(F)(F)F)nn2)CC1 [Example E2]
measured: 25.1
--
molecule: CN1CCN(c2cc(-c3ccccc3)c(C(F)(F)F)nn2)CC1 [Example E22]
measured: 38.9
--
molecule: FC(F)(F)c1nnc(N2CCNCC2)cc1-c1cc(Cl)ccc1Cl [Example E34]
measured: 87.1

**Q:** // lookup IC50 for Fc1ccc(CN2CCN(c3cc(-c4ccccc4)c(C(F)(F)F)nn3)CC2)cc1F [Example E21]
**A:** 1480

###

assaySystem: human Serotonin 5HT6 receptor (Homo sapiens)
Construct: expressed in transfected cells; host or cells: HEK cells (membranes)
assayProtocol: In vitro binding affinity for human 5HT6 receptor ([3H]lysergic acid diethylamide)
conditionParameters: [3H]LSD, membranes of human 5HT6 receptor-transfected HEK cells; read-out: 5-HT6 binding pIC50 (converted)
Record form. Attribute: IC50. Fill in for each entry.
Give bare numbers, in µM.

molecule: Cc1cc(F)ccc1-c1cc(N2CCNCC2)nnc1C(F)(F)F [Example E28]
measured: 0.245
--
molecule: N#Cc1nnc(N2CCNCC2)cc1-c1ccccc1 [Example E10]
measured: 4.57
--
molecule: FC(F)(F)c1nnc(N2CCNCC2)cc1-c1ccc(Br)cc1 [Example E14]
measured: 4.27
--
molecule: Clc1nnc(N2CCNCC2)cc1-c1ccccc1 [Example E20]
measured: 4.37
--
molecule: CC1CN(c2cc(-c3ccccc3)c(C(F)(F)F)nn2)C(C)CN1 (racemic) [Example E26]
measured: 2.29
--
molecule: Fc1ccc(-c2cc(N3CCNCC3)nnc2C(F)(F)F)cc1 [Example E6]
measured: 0.214
--
molecule: FC(F)(F)c1nnc(N2CCN3CCCC3C2)cc1-c1ccccc1 (racemic) [Example E5]
measured: 1.02
--
molecule: Cc1ccccc1-c1cc(N2CCNCC2)nnc1C(F)(F)F [Example E8]
measured: 0.263

// for each molecule below, give its IC50
1. Cc1cscc1-c1cc(N2CCNCC2)nnc1C(F)(F)F [Example E29]
2. FC(F)(F)c1nnc(N2CCNCC2)cc1-c1ccccc1 [Example E1]

**A:**
0.537
0.589
